The origin of these recorded values is PubChem BioAssay (NCI).

Kindly state TGI for each of the entries shown.
- System: BT-549 breast
- Experiment summary: NCI tumour cell line growth inhibition, 48 h
Response body: numeric value in µM, unit text excluded.

Reported TGI for BT-549 breast, given O=[N+]([O-])c1ccc2c(c1)c(N=NC(=S)NC1CCCCC1)c(O)n2CN1CCOCC1 ? 20.8

Reported TGI for BT-549 breast, given COc1ccc(N=C2C(=O)C3=C(OC(C)(C)CC3)c3ccccc32)cc1 ? 2.58

Reported TGI for BT-549 breast, given CCCCCCCC/C=C/CCCCCCCC1=NC(C)(C)CN1C(C)C ? 3.74

----------
- Tested on: OVCAR-4 ovarian
- Experiment summary: NCI tumour cell line growth inhibition, 48 h
Property label: TGI

Reported TGI for OVCAR-4 ovarian, given CC(=O)CCNc1ccc(-c2cc(-c3ccc(N(C)C)cc3)nc3ccc4ccccc4c23)cc1 ? > 100 µM

Reported TGI for OVCAR-4 ovarian, given CN(CCCNC(=O)c1cn(C)c2c1ccc1cc(Cl)c(Cl)cc12)CCCNC(=O)c1cn(C)c2c1ccc1cc(Cl)c(Cl)cc12 ? 25.3 µM

Reported TGI for OVCAR-4 ovarian, given CC(NC(=O)C(N)Cc1ccc(O)cn1)C(=O)O (stereo not drawn) ? > 100 µM

----------
Kindly state log10 TGI for each of the entries shown.
- Test system: TK-10 renal
- Experiment summary: NCI tumour cell line growth inhibition, 48 h
Values below are the log10 of the recorded TGI, with µM as the unit.

Please look up its log10 TGI: COc1cc(/C=C/C(=O)c2ccc(Nc3ncnc4ccccc34)cc2)cc(OC)c1 1.39

Please look up its log10 TGI: C#CCN=C(N/N=C/c1ccc([N+](=O)[O-])o1)NS(=O)(=O)c1cc(C)c(Cl)cc1SCC(N)=O 1.58

Please look up its log10 TGI: COc1cc2nc(Sc3c([N+](=O)[O-])ncn3C)[nH]c2cc1OC 1.83

Please look up its log10 TGI: N=C(N)c1ccc(-c2ccc(-c3ccc(Cl)cc3)o2)o1 0.55

Please look up its log10 TGI: Nc1nc(N)c2c(n1)NC(c1ccccc1)CC(/C=C/c1ccc(Cl)cc1)=N2 (stereo not given) 0.94

----------
- Tested on: NCI-H23 lung
- Experiment summary: NCI tumour cell line growth inhibition, 48 h
Property label: TGI

Please look up its TGI: O=[n+]1c2c(n([O-])c3ccccc31)-c1cccc3cccc-2c13 > 100 µM

Please look up its TGI: Cc1ccc2c(=O)cc(-c3cccc4ccccc34)[nH]c2n1 > 100 µM

Please look up its TGI: CN(c1ccccc1)S(=O)(=O)c1ccccc1[N+](=O)[O-] > 100 µM

Please look up its TGI: COc1cc2nc(Sc3c([N+](=O)[O-])ncn3C)[nH]c2cc1OC > 100 µM

Please look up its TGI: Cc1ccc(S(=O)(=O)OC2=C/C(=N\c3onc(C)c3C)c3ccccc3C2=O)cc1 73.8 µM

----------
- Tested on: DMS 273 small cell lung
- Experiment summary: NCI tumour cell line growth inhibition, 48 h
Where a SMILES comes first, the peptide text is derived from it.
Kindly state TGI for each of the entries shown.

Please look up its TGI: N=C1N(c2ccccc2)C(=O)C23CCCC2C13N1CCOCC1 (centres undefined) > 100 µM

Please look up its TGI: CC(C)CC(NC(=O)C(CC(C)C)NC(=O)C(Cc1cnc[nH]1)NC(=O)C(C)NC(=O)C(NC(=O)C(C)NC(=O)C(Cc1c[nH]c2ccccc12)NC(=O)C(CCC(=O)O)NC(=O)C(N)Cc1ccccc1)C(C)C)C(N)=O (centres undefined) (H-FEWAVAHLL-NH2; configuration not given here) > 100 µM

Please look up its TGI: CCOc1ccccc1N=Nc1c(-c2ccccc2)nn(C(=O)CC(=O)Nc2cccc(Cl)c2)c1-c1ccccc1 > 100 µM

Please look up its TGI: C/C(=N\NC(=O)c1cccnc1)c1cccc(/C(C)=N/NC(=O)c2cccnc2)n1 25.5 µM

----------
Kindly state TGI for each of the entries shown.
- Tested on: HOP-62 NSCLC
- Experiment summary: NCI tumour cell line growth inhibition, 48 h

Reported TGI for HOP-62 NSCLC, given CC1(C)C(O)C[C@]23CCC[C@](C)(C[C@@H](O)C12)C3 (stereo not given in full) ? > 100 µM

Reported TGI for HOP-62 NSCLC, given O=c1cc(-c2ccc(Cl)cc2)[nH]c2ncccc12 ? > 100 µM

Reported TGI for HOP-62 NSCLC, given OC(c1cccnc1)C(F)(F)c1nc2ccccc2o1 (stereo not given) ? > 100 µM

Reported TGI for HOP-62 NSCLC, given COC(=O)C(=O)C(C(=O)C(=O)Nc1ccc(Cl)cc1C)c1nc2ccc(C(=O)c3ccccc3)cc2[nH]c1=O (stereo not given) ? > 100 µM

Reported TGI for HOP-62 NSCLC, given Cc1ccc2c(=O)cc(-c3cccc4ccccc34)[nH]c2n1 ? > 100 µM

Reported TGI for HOP-62 NSCLC, given CC1(C)CCC2(C(=O)OC3OC(CO)C(O)C(O)C3O)CCC3(C)C(=CCC4C5(C)CCC(OC6OC(CO)C(O)C(O)C6O)C(C)(C)C5CCC43C)C2C1 (stereo not given) ? > 25 µM

Reported TGI for HOP-62 NSCLC, given N/C(=N\N=C\c1cccs1)NO ? > 100 µM

Reported TGI for HOP-62 NSCLC, given CCOC(=O)c1nc2ccccc2nc1NCc1ccc(OC)cc1 ? > 100 µM

Reported TGI for HOP-62 NSCLC, given COc1ccc(-c2cc(=O)c3c(OC)c(OC)c(OC)c(OC)c3o2)cc1OC ? > 100 µM

Reported TGI for HOP-62 NSCLC, given CN(C)CCn1c(=O)c2ccc3c4c(nn3CCN(C)C)c3cc(N)ccc3n(c1=O)c24 ? 0.201 µM

Reported TGI for HOP-62 NSCLC, given O=C1c2cc3c(cc2-c2c1c1ccc(Cl)cc1c(=O)n2C[C@H](O)[C@@H](O)[C@H](O)CO)OCO3 ? 0.341 µM

Reported TGI for HOP-62 NSCLC, given CC1(C)C=C(/C=N/Nc2ccc([N+](=O)[O-])cc2)C(C#N)=C(O)C1(C#N)C#N ? > 100 µM

Reported TGI for HOP-62 NSCLC, given OCC1OC(Oc2cc(O)cc(/C=C\c3ccc(O)cc3)c2)C(O)C(O)C1O (stereo not given) ? > 100 µM

Reported TGI for HOP-62 NSCLC, given CSC(=NCCCCN=C(NS(=O)(=O)c1ccc(Cl)cc1)SC)NS(=O)(=O)c1ccc(Cl)cc1 ? > 100 µM

Reported TGI for HOP-62 NSCLC, given O=C1CCCC2=C(N1)C(=O)C=CC2=O ? 61.9 µM

Reported TGI for HOP-62 NSCLC, given COC(=O)C[C@@H]1C(C)(C)[C@@H]2O[C@@]34C[C@@H]2C(=O)[C@]1(C)[C@H]3CC[C@@]1(C)[C@H](c2ccoc2)OC(=O)C[C@]14O ? > 100 µM

Reported TGI for HOP-62 NSCLC, given O=C1CC(CC(O)C(O)C(O)CO)CC(=O)N1 (stereo not given) ? > 100 µM

Reported TGI for HOP-62 NSCLC, given CC(=O)N(C)c1ccc2c(ccc[n+]2[O-])c1[N+](=O)[O-] ? > 100 µM

Reported TGI for HOP-62 NSCLC, given CCOC(=O)C(NC(=O)c1ccccc1)(Nc1ccc(S(=O)(=O)Nc2nc(C)cc(C)n2)cc1)C(F)(F)F (stereo not given) ? > 100 µM

Reported TGI for HOP-62 NSCLC, given O=c1c2ccccc2nc(-c2ccc(Br)cc2)n1NC1OC(CO)C(O)C(O)C1O (stereo not given) ? > 100 µM

----------
Kindly state TGI for each of the entries shown.
- System: M14 melanoma
- Experiment summary: NCI tumour cell line growth inhibition, 48 h

Reported TGI for M14 melanoma, given O=[N+]([O-])c1cc(CCl)ccc1CCl ? 3.59 µM

Reported TGI for M14 melanoma, given OCCOCn1cc(Cn2ncc3c(SCc4ccccc4)ncnc32)nn1 ? > 100 µM

Reported TGI for M14 melanoma, given CN(/N=C/c1cccs1)c1ccc(Cl)cc1[N+](=O)[O-] ? > 100 µM

Reported TGI for M14 melanoma, given CCc1ccc(Nc2cc(=O)[nH]c(SCc3ccccc3)n2)cc1 ? > 100 µM

Reported TGI for M14 melanoma, given Cc1cccc2c(N=Nc3ccc(S(N)(=O)=O)cc3)c(O)[nH]c12 ? > 25 µM

Reported TGI for M14 melanoma, given CN[C@]12CC3(C=CC(=O)C=C3)O[C@@]1(Cc1ccc(OC)cc1)N(C)C(=O)N2 ? 7.6 µM

Reported TGI for M14 melanoma, given Oc1ccc(CNCc2ccccc2)c2cccnc12 ? 12 µM

Reported TGI for M14 melanoma, given Cn1c(=O)[nH]c2[nH]c3ccccc3c2c1=O ? > 100 µM

Reported TGI for M14 melanoma, given NS(=O)(=O)c1ccc(NNc2c3ccccc3nc3ccccc23)cc1 ? 15.9 µM

Reported TGI for M14 melanoma, given CCCCCC(O)[C@H]1C(=O)C[C@@H](O[Si](C)(C)C(C)(C)C)[C@@H]1/C=C/CCOCc1ccccc1 (stereo partly specified) ? 34.5 µM

Reported TGI for M14 melanoma, given ClC1CCC2OOC1O2 (stereo unspecified) ? > 100 µM
